Data origin: PubChem BioAssay AID2060891

Field: viability, T/C. Provide a value for each of the molecules that follow.
System: K98450-129-R-PDC complex spheroid growth, percent test/control;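 also: luminescence used as a proxy for viable cell amount; spheroids exposed to agents for seven days before the viability readout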
Method: Anticancer human tumor K98450-129-R-PDC patient-derived colon adenocarcinoma cell line growth inhibition [RAS]
Test conditions: second compound 1 µM; first compound 10 µM; active compounds read low
Give bare numbers, in %.

Below, 6 molecules whose answers are already recorded.
| Molecule | viability, T/C (%) |
| --- | --- |
| Cc1nc(N2CCC3(CC2)COC(C)C3N)c(CO)nc1Sc1ccnc(N)c1Cl (stereo unspecified) + C=CC(=O)N1CCN(c2nc(OCC3CCCN3C)nc3c(F)c(-c4nc(N)cc(C)c4C(F)(F)F)c(Cl)cc23)C(C)C1 | 7.65 |
| CC(C)NCC(C(=O)N1CCN(c2ncnc3c2C(C)CC3O)CC1)c1ccc(Cl)cc1 (stereo unspecified) + C=CC(=O)N1CCN(c2nc(OCC3CCCN3C)nc3c(F)c(-c4nc(N)cc(C)c4C(F)(F)F)c(Cl)cc23)C(C)C1 | 29 |
| Cc1nc(N2CCC3(CC2)COC(C)C3N)c(CO)nc1Sc1ccnc(N)c1Cl (stereo unspecified) + C#Cc1c(F)ccc2cc(O)cc(-c3ncc4c(N5CC6CCC(C5)N6)nc(OCC56CCCN5CC(F)C6)nc4c3F)c12 | 12.9 |
| CC(Nc1ccc2c(c1)OCCn1cc(N3C(=O)OCC3C(F)F)nc1-2)C(N)=O (stereo unspecified) + C#Cc1c(F)ccc2cc(O)cc(-c3ncc4c(N5CC6CCC(C5)N6)nc(OCC56CCCN5CC(F)C6)nc4c3F)c12 | 64.3 |
| CC1(O)CCCC1n1c(=O)c(C(F)F)cc2cnc(NC3CCN(S(C)(=O)=O)CC3)nc21 (stereo unspecified) + C=CC(=O)N1CCN(c2nc(OCC3CCCN3C)nc3c(F)c(-c4nc(N)cc(C)c4C(F)(F)F)c(Cl)cc23)C(C)C1 | 16.1 |
| CC(=O)OC12COC1CC(O)C1(C)C(=O)C(O)C3=C(C)C(OC(=O)C(O)C(NC(=O)OC(C)(C)C)c4ccccc4)CC(O)(C(OC(=O)c4ccccc4)C21)C3(C)C (stereo unspecified) + C#Cc1c(F)ccc2cc(O)cc(-c3ncc4c(N5CC6CCC(C5)N6)nc(OCC56CCCN5CC(F)C6)nc4c3F)c12 | 32.1 |

For every item in the list below, what is its measured viability, T/C?
1. CCC(CC)c1cc(NC2CCC(N)C2)n2nccc2n1 (stereo unspecified) + C#Cc1c(F)ccc2cc(O)cc(-c3ncc4c(N5CC6CCC(C5)N6)nc(OCC56CCCN5CC(F)C6)nc4c3F)c12
2. C[C@@H](NC(=O)c1ncnc(N)c1Cl)c1ncc(C(=O)Nc2cc(C(F)(F)F)c(Cl)cn2)s1 + C=CC(=O)N1CCN(c2nc(OCC3CCCN3C)nc3c(F)c(-c4nc(N)cc(C)c4C(F)(F)F)c(Cl)cc23)C(C)C1
3. CC(C)NCC(C(=O)N1CCN(c2ncnc3c2C(C)CC3O)CC1)c1ccc(Cl)cc1 (stereo unspecified) + C#Cc1c(F)ccc2cc(O)cc(-c3ncc4c(N5CC6CCC(C5)N6)nc(OCC56CCCN5CC(F)C6)nc4c3F)c12
4. CC1(O)CCCC1n1c(=O)c(C(F)F)cc2cnc(NC3CCN(S(C)(=O)=O)CC3)nc21 (stereo unspecified) + C#Cc1c(F)ccc2cc(O)cc(-c3ncc4c(N5CC6CCC(C5)N6)nc(OCC56CCCN5CC(F)C6)nc4c3F)c12
5. C[C@@H](NC(=O)c1ncnc(N)c1Cl)c1ncc(C(=O)Nc2cc(C(F)(F)F)c(Cl)cn2)s1 + C#Cc1c(F)ccc2cc(O)cc(-c3ncc4c(N5CC6CCC(C5)N6)nc(OCC56CCCN5CC(F)C6)nc4c3F)c12
6. CCC(CC)c1cc(NC2CCC(N)C2)n2nccc2n1 (stereo unspecified) + C=CC(=O)N1CCN(c2nc(OCC3CCCN3C)nc3c(F)c(-c4nc(N)cc(C)c4C(F)(F)F)c(Cl)cc23)C(C)C1
7. NC1c2ccccc2OC12CCN(c1cnc3c(N4CCCc5ncccc54)n[nH]c3n1)CC2 (stereo unspecified) + C=CC(=O)N1CCN(c2nc(OCC3CCCN3C)nc3c(F)c(-c4nc(N)cc(C)c4C(F)(F)F)c(Cl)cc23)C(C)C1

Result ::
1: 19.1; 2: 43.5; 3: 99.2; 4: 55.3; 5: 102; 6: 8.2; 7: 5.01

For every item in the list below, what is its measured viability, T/C?
1. CC(Nc1ccc2c(c1)OCCn1cc(N3C(=O)OCC3C(F)F)nc1-2)C(N)=O (stereo unspecified) + C=CC(=O)N1CCN(c2nc(OCC3CCCN3C)nc3c(F)c(-c4nc(N)cc(C)c4C(F)(F)F)c(Cl)cc23)C(C)C1
2. CC(=O)OC12COC1CC(O)C1(C)C(=O)C(O)C3=C(C)C(OC(=O)C(O)C(NC(=O)OC(C)(C)C)c4ccccc4)CC(O)(C(OC(=O)c4ccccc4)C21)C3(C)C (stereo unspecified) + C=CC(=O)N1CCN(c2nc(OCC3CCCN3C)nc3c(F)c(-c4nc(N)cc(C)c4C(F)(F)F)c(Cl)cc23)C(C)C1

Result ::
1. 14.5
2. 13.4

Query :: Can you share its viability, T/C? I mean this molecule: NC1c2ccccc2OC12CCN(c1cnc3c(N4CCCc5ncccc54)n[nH]c3n1)CC2 (stereo unspecified) + C#Cc1c(F)ccc2cc(O)cc(-c3ncc4c(N5CC6CCC(C5)N6)nc(OCC56CCCN5CC(F)C6)nc4c3F)c12
Result :: 6.07
